- experiment.notes: HEK-293 Cancer Cell Toxicity qHTS against the NCATS CANVASS Library (AID 1347355); also: nearly all actives have a fitted effect of over 65% in size
- test.conditions: HEK-293 viability, CellTiter-Glo luminescence, 72 h; series mostly up to 46.1 µM
Records with an inconclusive call do not appear. Calls of active or inactive are those of the source. Calls follow the shape of the dose curve; as a rule, active = well fitted cell-killing curve with a large enough effect; inconclusive = small, poorly fitted or top-dose-only effect; inactive = flat fitted curve, though single readings scatter.
The reply should name one outcome from active, inactive

Would you please look over these solved cases?
Input line: Status in this test for CCCCCCCCCCCCCCC[C@H](O)C[C@@H](O)C[C@@H](O)C[C@@H](O)C[C@@H](O)C[C@H]1CC=CC(=O)O1 ?
Output line: active

Input line: Status in this test for C[C@@H]1C(=O)[C@]23CC[C@H]1C[C@]21O[C@H]2C(C)(C)C=CC(=O)[C@]23COC1=O ?
Output line: inactive

Input line: Status in this test for C[C@@H]1O[C@H](c2c(O)cc(O)c3c(=O)cc(-c4ccc(O)cc4)oc23)[C@H](O)[C@H](O)[C@H]1O ?
Output line: inactive

***
Input line: Status in this test for O=C1c2c(O)cc(O)cc2O[C@@H](c2ccc(O)cc2)[C@@H]1c1c(O)cc(O)c2c(=O)cc(-c3ccc(O)c(O)c3)oc12 ?
Output line: inactive

Input line: Status in this test for CNc1ccc(Cl)cc1C(=O)OC[C@]1(C)[C@H]2CC[C@]3(C)[C@@H](C[C@@H](OC)[C@H](C)[C@H]3C3=C(O)C(=O)OC3O)[C@]2(C)CC[C@H]1O (some centres not stated) ?
Output line: inactive

Input line: Status in this test for O=C(O)CC1OCc2c(O)cccc21 (configuration not stated) ?
Output line: inactive

Input line: Status in this test for C/C=C/C=C/C1(O)C2C=C3C(=O)CC45C(=O)C(O)=C(C)C(=O)C4C1C1(C(=O)C(O)=C(C)C(=O)C351)C2C (configuration not stated) ?
Output line: inactive
